Just for reference, ChEMBL document CHEMBL6127121 is where these values come from.

- protocol: Metabolic stability in human liver microsomes assessed as half life preincubated for 10 mins followed by NADP, glucose-6-phosphate and glucose-6-phosphate dehydrogenase addition and measured upto 60 mins by LC-MS/MS analysis
- Assay type: ADME, Microsome
- condition: time < 70 min
# half-life per entry

- compound: "CCOc1ccc2ccc(=O)oc2c1"
  unit-name: "min"
  lt-gt-eq: "="
  half-life: 14.8
- compound: "CC(C)NCC(O)COc1cccc2ccccc12 (stereo not drawn)"
  unit-name: "min"
  lt-gt-eq: "="
  half-life: 35.2
- compound: "O=S(=O)(Nc1ccc(-n2ccnc2)cc1)c1ccc(Cl)cc1"
  unit-name: "min"
  lt-gt-eq: ">"
  half-life: 500

###

# microsomal CLint per entry
- protocol: Metabolic stability in mouse liver microsomes assessed as intrinsic clearance per mg protein preincubated for 10 mins followed by NADP, glucose-6-phosphate and glucose-6-phosphate dehydrogenase addition and measured upto 60 mins by LC-MS/MS analysis
- Assay type: ADME, Microsome
- condition: time < 70 min, read-out: CLH

- smiles-code: "CCOc1ccc2ccc(=O)oc2c1"
  lt-gt-eq: "="
  microsomal CLint, µL/min/mg: 712
- smiles-code: "O=S(=O)(Nc1ccc(-n2ccnc2)cc1)c1ccc(Cl)cc1"
  lt-gt-eq: "<"
  microsomal CLint, µL/min/mg: 3

###

- protocol: Metabolic stability in human liver microsomes assessed as intrinsic clearance per mg protein preincubated for 10 mins followed by NADP, glucose-6-phosphate and glucose-6-phosphate dehydrogenase addition and measured upto 60 mins by LC-MS/MS analysis
- Format: ADME, Microsome
- condition: time < 70 min, read-out: CLH
readout-kind: microsomal CLint

- smiles-code: "O=S(=O)(Nc1ccc(-n2ccnc2)cc1)c1ccc(Cl)cc1"
  readout-kind: "microsomal CLint"
  assay-result: "< 3 µL/min/mg"
- smiles-code: "CCOc1ccc2ccc(=O)oc2c1"
  readout-kind: "microsomal CLint"
  assay-result: "94 µL/min/mg"

###

- Tested on: SW480
- protocol: Inhibition of cell growth in human SW480 cells incubated for 48 to 72 hrs by XTT method
- Format: functional, cell-based
# EC50 per entry

- smiles-code: "CCOC(=O)c1ccc(NS(=O)(=O)c2ccc(Br)cc2)cc1"
  lt-gt-eq: ">"
  EC50 [µM]: 50
- smiles-code: "O=S(=O)(Nc1ccc(-c2ccccc2)cc1)c1ccc(C(F)(F)F)cc1"
  lt-gt-eq: "="
  EC50 [µM]: 8.7
- smiles-code: "O=S(=O)(Nc1cccc(-c2ccccn2)c1)c1ccc(-n2cccc2)cc1"
  lt-gt-eq: "="
  EC50 [µM]: 46

###

# pEC50 per entry
- System: SW480
- protocol: Inhibition of cell growth in human SW480 cells incubated for 48 to 72 hrs by XTT method
- Format: functional, cell-based
pEC50: −log10 of the molar value.
readout-kind: pEC50

- compound: "O=S(=O)(Nc1cccc(-c2ccsc2)c1)c1ccc(Br)cc1"
  readout-kind: "pEC50"
  lt-gt-eq: "="
  assay-result: 4.60
- compound: "O=S(=O)(Nc1cccc(-n2ccnc2)c1)c1ccc(C(F)(F)F)cc1"
  readout-kind: "pEC50"
  lt-gt-eq: "="
  assay-result: 4.55
- compound: "O=c1[nH]cc(F)c(=O)[nH]1 [FLUOROURACIL]"
  readout-kind: "pEC50"
  lt-gt-eq: "="
  assay-result: 4.86
- compound: "O=S(=O)(Nc1ccc(-n2ccnc2)cc1)c1ccc(Cl)cc1"
  readout-kind: "pEC50"
  lt-gt-eq: "="
  assay-result: 5.70
- compound: "O=S(=O)(Nc1ccc(-c2ccoc2)cc1)c1ccc(C(F)(F)F)cc1"
  readout-kind: "pEC50"
  lt-gt-eq: "<"
  assay-result: 4.30
- compound: "O=S(=O)(Nc1ccc(-c2ccco2)cc1)c1ccc(C(F)(F)F)cc1"
  readout-kind: "pEC50"
  lt-gt-eq: "<"
  assay-result: 4.30
- compound: "O=S(=O)(Nc1ccc(-c2ccsc2)cc1)c1ccc(C(F)(F)F)cc1"
  readout-kind: "pEC50"
  lt-gt-eq: "="
  assay-result: 4.77
- compound: "O=S(=O)(Nc1cccc(-c2ccccc2)c1)c1ccc(Br)cc1"
  readout-kind: "pEC50"
  lt-gt-eq: "="
  assay-result: 4.92
- compound: "O=S(=O)(Nc1cccc(-c2ccoc2)c1)c1ccc(C(F)(F)F)cc1"
  readout-kind: "pEC50"
  lt-gt-eq: "<"
  assay-result: 4.30
- compound: "O=S(=O)(Nc1ccc(-n2ccnc2)cc1)c1ccc(Br)cc1"
  readout-kind: "pEC50"
  lt-gt-eq: "<"
  assay-result: 4.30
- compound: "O=S(=O)(Nc1cccc(-c2ccco2)c1)c1ccc(C(F)(F)F)cc1"
  readout-kind: "pEC50"
  lt-gt-eq: "<"
  assay-result: 4.30
- compound: "O=S(=O)(Nc1ccc(-c2ccccc2)cc1)c1ccc(Br)cc1"
  readout-kind: "pEC50"
  lt-gt-eq: "="
  assay-result: 4.51
- compound: "O=S(=O)(Nc1ccc(-n2ccnc2)cc1)c1ccc(C(F)(F)F)cc1"
  readout-kind: "pEC50"
  lt-gt-eq: "="
  assay-result: 4.85
- compound: "O=S(=O)(Nc1cccc(-n2ccnc2)c1)c1ccc(Br)cc1"
  readout-kind: "pEC50"
  lt-gt-eq: "<"
  assay-result: 4.30
- compound: "O=S(=O)(Nc1cccc(-c2ccoc2)c1)c1ccc(Br)cc1"
  readout-kind: "pEC50"
  lt-gt-eq: "="
  assay-result: 4.42
- compound: "O=S(=O)(Nc1ccc(-c2ccoc2)cc1)c1ccc(Br)cc1"
  readout-kind: "pEC50"
  lt-gt-eq: "="
  assay-result: 4.46
- compound: "O=S(=O)(Nc1cccc(-n2ccnc2)c1)c1ccc(Cl)cc1"
  readout-kind: "pEC50"
  lt-gt-eq: "<"
  assay-result: 4.30
- compound: "O=S(=O)(Nc1cccc(-c2ccccc2)c1)c1ccc(C(F)(F)F)cc1"
  readout-kind: "pEC50"
  lt-gt-eq: "="
  assay-result: 4.37
- compound: "O=S(=O)(Nc1cccc(-c2ccccn2)c1)c1ccc(C(F)(F)F)cc1"
  readout-kind: "pEC50"
  lt-gt-eq: "<"
  assay-result: 4.30
- compound: "O=S(=O)(Nc1ccc(-c2cccs2)cc1)c1ccc(C(F)(F)F)cc1"
  readout-kind: "pEC50"
  lt-gt-eq: "="
  assay-result: 4.35
- compound: "O=S(=O)(Nc1ccc(-c2ccsc2)cc1)c1ccc(Br)cc1"
  readout-kind: "pEC50"
  lt-gt-eq: "="
  assay-result: 4.57
- compound: "O=S(=O)(Nc1ccc(-c2ccccn2)cc1)c1ccc(Br)cc1"
  readout-kind: "pEC50"
  lt-gt-eq: "="
  assay-result: 4.47
- compound: "O=S(=O)(Nc1cccc(-c2ccccn2)c1)c1ccc(I)cc1"
  readout-kind: "pEC50"
  lt-gt-eq: "="
  assay-result: 4.60
